Exercise: for every item that follows, state its recorded chromatographic logP.
# assay.method.text: Measurement of log P values by HPLC on reversed phase columns (methods [a] pH 2.3, [b] pH 2.7, [c] pH 7.8)
# Assay type: physicochemical
# measurement.parameters: reversed phase HPLC columns, HPLC-MS, method letter not given; read-out: log P
# Procedure: Measurement of log P-Values: Measurement of log P Values was Performed According EEC Directive 79/831 Annex V.A8 by HPLC (High Performance Liquid Chromatography) on reversed phase columns with the following methods: ^[a] […]
Provide a numeric answer; units are not to be included.

response.value for O=C(N[C@H]1CCC1c1ccccc1C(F)(F)F)c1ccccc1I (stereo in doubt) (field: chromatographic logP) = 3.44

response.value for O=C(N[C@H]1CCC1c1ccccc1C(F)(F)F)c1ccccc1Cl (stereo in doubt) (field: chromatographic logP) = 3.3

response.value for O=C(NC1CCC1c1ccccc1Cl)c1ncccc1Cl (stereo not drawn) (field: chromatographic logP) = 3.06

response.value for O=C(N[C@@H]1CC[C@@H]1c1ccccc1Cl)c1ncccc1Cl (relative stereo) (field: chromatographic logP) = 2.79

response.value for Cn1cc(C(=O)NC2CCC2c2ccc(Cl)cc2Cl)c(C(F)F)n1 (single isomer, unassigned) [Preparation Example 2 cis-Isomer] (field: chromatographic logP) = 2.95

response.value for O=C(N[C@H]1CCC1c1c(F)cccc1F)c1cccnc1C(F)(F)F (stereo in doubt) (field: chromatographic logP) = 2.6
